Target: Recombinant human KIF18A (1-467 His-tagged) protein (Homo sapiens, UniProt Q8NI77)
Construct: Recombinant human KIF18A (1-467 His-tagged) protein; His
Sequence (Q8NI77 1-467): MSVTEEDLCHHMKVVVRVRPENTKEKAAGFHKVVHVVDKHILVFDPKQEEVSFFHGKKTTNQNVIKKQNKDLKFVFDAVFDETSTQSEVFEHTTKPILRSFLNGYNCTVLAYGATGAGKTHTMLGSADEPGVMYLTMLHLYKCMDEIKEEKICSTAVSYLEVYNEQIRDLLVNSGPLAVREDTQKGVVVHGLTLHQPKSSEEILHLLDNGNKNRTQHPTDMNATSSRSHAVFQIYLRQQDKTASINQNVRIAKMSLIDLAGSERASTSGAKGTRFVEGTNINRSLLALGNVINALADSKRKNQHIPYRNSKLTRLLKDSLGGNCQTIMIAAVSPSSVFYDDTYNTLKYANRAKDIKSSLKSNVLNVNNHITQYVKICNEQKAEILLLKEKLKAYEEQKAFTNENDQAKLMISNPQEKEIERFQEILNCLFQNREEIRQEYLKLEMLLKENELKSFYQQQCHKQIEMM
Sequence (P02550 whole entry partner): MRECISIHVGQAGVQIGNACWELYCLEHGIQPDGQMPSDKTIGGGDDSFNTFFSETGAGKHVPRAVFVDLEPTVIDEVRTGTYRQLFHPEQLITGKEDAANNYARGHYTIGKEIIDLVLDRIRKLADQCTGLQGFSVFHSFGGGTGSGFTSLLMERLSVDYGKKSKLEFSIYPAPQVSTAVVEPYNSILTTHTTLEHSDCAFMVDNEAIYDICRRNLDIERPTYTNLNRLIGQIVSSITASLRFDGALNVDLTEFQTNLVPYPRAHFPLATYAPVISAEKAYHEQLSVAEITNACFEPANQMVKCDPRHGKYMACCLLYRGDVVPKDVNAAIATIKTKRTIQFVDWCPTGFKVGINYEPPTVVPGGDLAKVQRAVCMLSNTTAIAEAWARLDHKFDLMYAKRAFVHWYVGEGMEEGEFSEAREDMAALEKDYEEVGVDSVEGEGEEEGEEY
Sequence (P02554 whole entry partner): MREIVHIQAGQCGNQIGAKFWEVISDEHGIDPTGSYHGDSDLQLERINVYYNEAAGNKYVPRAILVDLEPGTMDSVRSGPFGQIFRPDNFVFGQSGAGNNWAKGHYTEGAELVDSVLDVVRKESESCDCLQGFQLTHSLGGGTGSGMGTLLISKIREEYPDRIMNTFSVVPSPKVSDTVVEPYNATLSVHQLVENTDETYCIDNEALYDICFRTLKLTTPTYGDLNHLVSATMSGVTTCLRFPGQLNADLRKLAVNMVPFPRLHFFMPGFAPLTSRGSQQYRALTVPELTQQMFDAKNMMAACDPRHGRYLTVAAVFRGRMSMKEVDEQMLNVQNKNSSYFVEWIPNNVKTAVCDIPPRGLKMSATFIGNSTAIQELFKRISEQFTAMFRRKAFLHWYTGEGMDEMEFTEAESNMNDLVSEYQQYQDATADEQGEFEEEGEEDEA
Experiment: KIF18A Enzyme Assay (microtubule-stimulated ATPase activity, ADP-Glo)
Conditions: KIF18A protein 30 nM, ATP 75 μM (at Km), 30 μg/mL pig microtubules, ADP-Glo luminescence
Text: For compounds in Table A, the following assay conditions were employed: KIF18A Enzyme Assay: Microtubule-stimulated ATPase activity assay is used to measure KIF18A enzyme activity after treatment with compound. Compounds were 2-fold serially diluted in DMSO (Sigma Inc) over 22-point concentration range. […] Read luminescence using EnVision microplate reader with ultra-luminescence module (Perkin Elmer Inc). […]
Measured quantity: IC50 (nM)

CCC(C)C1CCN(c2nc(NC(C)(C)CO)cnc2C(=O)Nc2cccc(S(=O)(=O)NC(C)(C)C)c2)CC1 (stereo not shown) [Example 100-8]
163
Cc1cc(NC(=O)c2ncc(NC(C)(C)CO)nc2N2CCC3(CC2)CC3)cc(S(=O)(=O)NC(C)(C)C)c1 [Example 101]
231
CC(C)(CO)Nc1cnc(C(=O)Nc2cccc(S(=O)(=O)C3(C)CCC3)c2)c(N2CCC3(CC2)CC3)n1 [Example 101-3]
204

P. CC(C)C1CCN(c2nc(NC(C)(C)CO)cnc2C(=O)Nc2cccc(S(=O)(=O)NC(C)(C)C)c2)CC1 [Example 100-6]
Q. CC(C)(C)NS(=O)(=O)c1cccc(NC(=O)c2ncc(NC(C)(C)CO)nc2N2CCC3(CC2)CC3)c1 [Example 100]
Data request: Task for the reader: decide whether P or Q has the larger IC50. In your reply, give the label of the chosen option.
Data returned: P
(P: 319 nM, Q: 82 nM)

1. CCCC1CCN(c2nc(NC(C)(C)CO)cnc2C(=O)Nc2cccc(S(=O)(=O)NC(C)(C)C)c2)CC1 [Example 100-9]
2. CC(C)(CO)Nc1cccc(NC(=O)c2ncc(NC(C)(C)CO)nc2N2CCC3(CC2)CC3)c1 [Example 101-8]
Data request: Which gives the smaller IC50 number: 1 or 2 ? State the label of the item chosen.
Data returned: 1
(1: 118 nM, 2: 240 nM)
